target or system: SARS-CoV-2 spike protein S1 subunit (Severe acute respiratory syndrome coronavirus 2)
Construct: Recombinant SARS-CoV-2 spike protein S1 subunit (˜72 kDa) containing an N-terminal His-tag; purchased RayBiotech (Peachtree Corners, GA)
Assay type: binding
Entry flag: Condition met if Fold Peak Area Enrichment, Standards mixture reaches 3; Condition not met if it does not.

C=C(C)[C@@H]1CCC(C)=C[C@H]1c1c(O)cc(CCC)cc1O; Condition not met
CCCCCc1cc(O)c(C/C=C(\C)CCC=C(C)C)c(O)c1; Condition met
C=C(C)[C@@H]1CCC(C)=C[C@H]1c1c(O)cc(CCCCC)cc1O; Condition not met

Can CCCCCc1cc2c(c(O)c1C(=O)O)[C@@H]1C=C(C)CC[C@H]1C(C)(C)O2 [THCA-A, Tetrahydrocannabinolic acid] be said to have Fold Peak Area Enrichment, Standards mixture at or above 3? Condition met

Can C=C(C)[C@@H]1CCC(C)=C[C@H]1c1c(O)cc(CCCCC)c(C(=O)O)c1O be said to have Fold Peak Area Enrichment, Standards mixture at or above 3? Condition met

Can CCCCCc1cc(O)c(C/C=C(\C)CCC=C(C)C)c(O)c1C(=O)O be said to have Fold Peak Area Enrichment, Standards mixture at or above 3? Condition met

Can CCCCCc1cc(O)c2c(c1)OC(C)(CCC=C(C)C)C=C2 (stereo not shown) be said to have Fold Peak Area Enrichment, Standards mixture at or above 3? Condition not met

Can CCCCCc1cc(O)c2c(c1)OC(C)(C)c1ccc(C)cc1-2 be said to have Fold Peak Area Enrichment, Standards mixture at or above 3? Condition met

Can CCCCCc1cc(O)c2c(c1)OC(C)(C)[C@@H]1CC=C(C)C[C@@H]21 [Δ^8-THC, Δ^8-Tetrahydrocannabinol] be said to have Fold Peak Area Enrichment, Standards mixture at or above 3? Condition met

====

target or system: SARS-CoV-2 spike protein S1 subunit (Severe acute respiratory syndrome coronavirus 2, UniProt P0DTC2)
Construct: Recombinant SARS-CoV-2 spike protein S1 subunit (˜72 kDa) containing an N-terminal His-tag
assay overview: Equilibrium dissociation constants by rapid equilibrium dialysis
setup conditions: 37° C., PBS pH 7.2
readout type: Kd
The reply must contain the numeric value and, after it, the unit.

CCCCCc1cc(O)c(C/C=C(\C)CCC=C(C)C)c(O)c1C(=O)O; 19.8 µM

Alright, here's another compound for you.
Name the recorded Kd of the item C=C(C)[C@@H]1CCC(C)=C[C@H]1c1c(O)cc(CCCCC)c(C(=O)O)c1O in your answer. 5.6 µM
